System: Hepatitis B virus
Test: Antiviral activity against HBV infected in human HepG2(2.2.15) cells assessed as inhibition of HBeAg level after 9 days by ELISA
Type: functional, organism-based
Conditions: HepG2 2.2.15, 216 h
quantity_measured: IC50

Study these solved cases before continuing.
substance_smiles: COc1ccc(/C(=N/Cc2ccc(C)cc2)c2ccc(=O)n(Cc3ccc(C)cc3)c2)c(O)c1
study_target: Hepatitis B virus
IC50: > 118 µM
//
substance_smiles: CCCCn1cc(C(=O)c2ccc(OC)cc2O)ccc1=O
study_target: Hepatitis B virus
IC50: > 133 µM

We now examine a further compound.
Return IC50 for the following compound: COc1ccc(C(=O)c2ccc(=O)n(-c3ccc(F)cc3)c2)c(O)c1
> 118 µM
